Biological target: F508del-CFTR (Homo sapiens, UniProt P13569, DEL508-508)
Construct: expressed in transfected cells
Sequence (P13569 with tags, fused parts or gaps DEL508-508): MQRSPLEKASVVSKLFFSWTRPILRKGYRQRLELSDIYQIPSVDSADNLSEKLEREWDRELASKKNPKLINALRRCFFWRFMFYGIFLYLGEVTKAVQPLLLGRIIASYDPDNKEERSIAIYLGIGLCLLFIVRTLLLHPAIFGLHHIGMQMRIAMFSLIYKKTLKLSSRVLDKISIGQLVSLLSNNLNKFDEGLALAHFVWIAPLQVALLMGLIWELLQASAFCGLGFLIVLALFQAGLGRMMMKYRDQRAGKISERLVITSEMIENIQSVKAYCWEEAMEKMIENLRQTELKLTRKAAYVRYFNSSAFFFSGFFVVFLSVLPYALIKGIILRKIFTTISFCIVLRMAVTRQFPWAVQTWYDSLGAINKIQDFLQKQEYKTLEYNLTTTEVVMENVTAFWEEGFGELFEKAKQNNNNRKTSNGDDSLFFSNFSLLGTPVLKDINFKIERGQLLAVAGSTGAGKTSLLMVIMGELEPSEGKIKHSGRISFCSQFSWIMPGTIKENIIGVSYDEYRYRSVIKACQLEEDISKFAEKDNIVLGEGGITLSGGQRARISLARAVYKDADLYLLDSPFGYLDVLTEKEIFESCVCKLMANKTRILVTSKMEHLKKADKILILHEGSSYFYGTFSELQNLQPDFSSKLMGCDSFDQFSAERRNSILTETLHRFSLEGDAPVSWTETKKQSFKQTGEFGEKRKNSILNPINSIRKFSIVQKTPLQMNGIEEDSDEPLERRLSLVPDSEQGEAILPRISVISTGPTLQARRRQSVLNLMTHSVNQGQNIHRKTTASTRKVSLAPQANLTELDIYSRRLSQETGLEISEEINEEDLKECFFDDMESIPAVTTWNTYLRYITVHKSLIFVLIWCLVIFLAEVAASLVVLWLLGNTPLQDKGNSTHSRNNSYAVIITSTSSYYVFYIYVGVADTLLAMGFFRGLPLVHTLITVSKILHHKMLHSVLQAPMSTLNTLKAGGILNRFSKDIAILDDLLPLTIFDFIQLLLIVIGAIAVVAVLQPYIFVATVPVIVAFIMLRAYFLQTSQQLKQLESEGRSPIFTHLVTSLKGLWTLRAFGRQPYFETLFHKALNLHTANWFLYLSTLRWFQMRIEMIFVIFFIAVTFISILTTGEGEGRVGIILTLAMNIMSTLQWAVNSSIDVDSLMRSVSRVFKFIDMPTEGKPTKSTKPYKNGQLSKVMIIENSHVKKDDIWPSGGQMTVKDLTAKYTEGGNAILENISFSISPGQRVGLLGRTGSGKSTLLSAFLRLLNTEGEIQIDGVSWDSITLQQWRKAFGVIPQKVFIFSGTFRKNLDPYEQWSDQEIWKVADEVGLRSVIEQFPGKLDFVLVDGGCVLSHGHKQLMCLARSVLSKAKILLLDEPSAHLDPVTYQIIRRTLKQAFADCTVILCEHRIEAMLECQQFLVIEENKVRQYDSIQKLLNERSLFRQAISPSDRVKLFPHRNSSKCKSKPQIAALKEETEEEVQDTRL
Assay: Live-cell photoaffinity labeling, streptavidin pull-down and CFTR Western blot
Type: binding
Details: F508del-CFTR CFBE41o- cells, probe 1 μM, 2 h, UV 365 nm
REPORTED ENDPOINT: CFTR in streptavidin pull-down (WB) after PAL

C[C@H]1NC(=O)N[C@H]1CCCCCC(=O)NCCOCCOCCOCCn1cc(CCC2(CCNC(=O)c3ccc(O[C@H]4CCCc5c(C(F)(F)F)nn(-c6cccc(C(=O)N(C)c7ccc8c(c7)OC(F)(F)O8)c6)c54)cc3)N=N2)nn1 | consistently captured
C[C@H]1NC(=O)N[C@H]1CCCCCC(=O)NCCOCCOCCOCCn1cc(-c2ccc(O[C@H]3CCCc4c(C(F)(F)F)nn(-c5cccc(C(=O)N(C)c6ccc(C7(C(F)(F)F)N=N7)cc6)c5)c43)cc2)nn1 | consistently captured
C[C@H]1NC(=O)N[C@H]1CCCCCC(=O)NCCOCCOCCOCCn1cc(CCC2(CCNC(=O)c3ccc(O[C@H]4CCCc5c(C(F)(F)F)nn(-c6cccc(C(=O)Nc7ccc8c(c7)OC(F)(F)O8)c6)c54)cc3)N=N2)nn1 | not pulled down
C[C@H]1NC(=O)N[C@H]1CCCCCC(=O)NCCOCCOCCOCCn1cc(-c2ccc(O[C@H]3CCCc4c(C(F)(F)F)nn(-c5cccc(C(=O)Nc6ccc(C7(C(F)(F)F)N=N7)cc6)c5)c43)cc2)nn1 | not pulled down

* * *

Target: F508del-CFTR (Homo sapiens, UniProt P13569, DEL508-508)
Construct: expressed in transfected cells
Experiment: HS-YFP functional assay in CFBE41o- cells stably overexpressing F508del-CFTR
Type: cell-based
Conditions: 24 h treatment, values normalized to DMSO-incubated cells
REPORTED ENDPOINT: HS-YFP assay in CFBE41o- cells Emax

C[C@H]1NC(=O)N[C@H]1CCCCCC(=O)NCCOCCOCCOCCn1cc(-c2ccc(O[C@H]3CCCc4c(C(F)(F)F)nn(-c5cccc(C(=O)N(C)c6ccc(C7(C(F)(F)F)N=N7)cc6)c5)c43)cc2)nn1 | 1.4

I: CN(C(=O)c1cccc(-n2nc(C(F)(F)F)c3c2[C@@H](Oc2ccc(C(=O)O)cc2)CCC3)c1)c1ccc2c(c1)OC(F)(F)O2
II: CN(C(=O)c1cccc(-n2nc(C(F)(F)F)c3c2[C@@H](Oc2ccc(C(=O)O)cc2)CCC3)c1)c1ccc(C2(C(F)(F)F)N=N2)cc1
Input: Of the two listed items, which has the higher HS-YFP assay in CFBE41o- cells Emax? First: I Second: II Answer by stating the label of the chosen item.
Output: I
(I: 2.7, II: 1.2)
